These measurements were taken from PubChem BioAssay (NCI).

tested on: MCF7 breast; experiment: NCI-60 one-dose screen, 48 h; conditions: 10 µM unless noted
The panel holds about 83,000 compounds, 20% with a hit somewhere; the sample as a whole holds those more often. Active and inactive are the calls of the source. Rule for the calls: active = growth percent below 10; inactive = the rest.
Outcomes: active, inactive

{"compound": "Cc1cccnc1NC(=S)Nc1ncccc1C", "assigned-class": "inactive"}
{"compound": "COc1cc(N2C(=O)[C@H](O)C2c2ccc(SC)cc2)cc(OC)c1OC (stereo not given in full)", "assigned-class": "inactive"}
{"compound": "C=CCc1c2c(c(OC)c3ccoc13)C(=O)/C(=C/c1ccccc1OC)O2", "assigned-class": "inactive"}
{"compound": "O=C(/C=C/c1ccc(Cl)cc1)c1cccc(Nc2nc(Nc3ccccc3)nc(Nc3ccccc3)n2)c1", "assigned-class": "active"}
{"compound": "COC(=O)c1c2c(c(C)[n+]([O-])c1C)C(=O)C=C(NCc1ccc(OC)cc1)C2=O", "assigned-class": "active"}
{"compound": "Cc1ccc(C(C(N)=O)C(C(N)=O)c2ccccc2)cc1 (stereo not given)", "assigned-class": "inactive"}
{"compound": "Cc1nc2sc(C(=O)Nc3ccccc3)c(N)c2cc1C(=O)c1ccccc1", "assigned-class": "inactive"}
{"compound": "Cc1ccc(Cc2cnc(NC(=O)c3cc(Br)cs3)s2)cc1", "assigned-class": "inactive"}
{"compound": "CC(C)(C)[Si](C)(C)O[C@H]1C(=O)C=CN2CC=C[C@@H]12", "assigned-class": "inactive"}
{"compound": "C=C1CC[C@@H]2[C@](C)(COC(C)=O)[C@H](OC(C)=O)CC[C@@]2(C)[C@@H]1CC(Sc1ccccc1)C1=CCOC1=O (stereo not given in full)", "assigned-class": "active"}
{"compound": "CC1=C(Nc2ccc(N3CCN(C)CC3)cc2)C(=O)c2cncnc2C1=O", "assigned-class": "inactive"}
{"compound": "N#C/C(=C\\c1ccc(Br)cc1)n1nnc2ccc(F)cc21", "assigned-class": "active"}
{"compound": "O=C(Nn1c2c(sc1=NCc1ccccc1)C(=O)c1ccccc1C2=O)c1cc2ccc1CCc1ccc(cc1)CC2", "assigned-class": "inactive"}
{"compound": "O=C(Cn1c(-c2ccc([N+](=O)[O-])cc2)nc2ccccc21)NNC(=O)c1cccnc1", "assigned-class": "inactive"}
{"compound": "COc1cc(OC)cc(C2=C3CC[C@@H]4[C@H](CC[C@]5(C)C(=O)CC[C@@H]45)C3=CC3C(O)c4cccnc4N4C(=O)COC234)c1 (stereo not given in full)", "assigned-class": "inactive"}
{"compound": "COc1cc(-c2cc(-c3ccc(N(C)C)cc3)nc(N3CCC(O)CC3)c2C#N)cc(OC)c1OC", "assigned-class": "active"}
{"compound": "CN(C)CCNC(=O)c1cccc(-c2cnc3ccc(-c4ccc5c(c4)OCO5)nn23)c1", "assigned-class": "inactive"}
{"compound": "Nc1ncnc2c1N=C(c1ccc(Cl)cc1)CC(c1ccc3c(c1)OCO3)N2 (stereo not given)", "assigned-class": "inactive"}
{"compound": "C=CCn1cc(-c2nc3ccccc3s2)c2cc(-c3ccc4c5c(cccc35)C(=O)N(N)C4=O)ccc21", "assigned-class": "inactive"}
{"compound": "CC(=O)[C@@H]1CCC=C2CC[C@]3(C)[C@@H](CC[C@@H]4[C@@]5(C)CCCNC(C)(C)[C@@H]5CC[C@]43C)[C@H]21", "assigned-class": "active"}
{"compound": "NC(=O)CCC(C(=O)O)N1C(=O)c2ccc(O)cc2C1=O (stereo not given)", "assigned-class": "inactive"}
{"compound": "Fc1cccc(CNc2c3ccccc3nc3ccccc23)c1F", "assigned-class": "inactive"}
{"compound": "c1cnc2[nH]cc(-c3csc(-c4cn(CCCN5CCOCC5)c5ccccc45)n3)c2c1", "assigned-class": "inactive"}
{"compound": "O=C(CI)NC1Oc2ccccc2-c2oc(=O)c(-c3ccccc3)cc21 (stereo not given)", "assigned-class": "active"}
{"compound": "C/C(=N\\NC(=O)c1ccccc1O)c1cccc(/C(C)=N/NC(=O)c2ccccc2O)n1", "assigned-class": "inactive"}
{"compound": "C#CCOc1cccc(Nc2ncnc3ccc(NC(=O)CCl)cc23)c1", "assigned-class": "active"}
{"compound": "CC(O)c1cnc(/C=C2\\SC(=S)N(Cc3ccccc3)C2=O)s1 (stereo not given)", "assigned-class": "inactive"}
{"compound": "CN1CCN(c2ccc(NC(=O)c3cncnc3Nc3ccc(OCc4ccccn4)c(Cl)c3)cc2)CC1", "assigned-class": "inactive"}
{"compound": "COCCn1c(-c2csc(-c3cn(C)c4ccc(OC)cc34)n2)cc2cccnc21", "assigned-class": "inactive"}
{"compound": "COc1cc(CNC(=O)/C=C/C=C/c2ccc3c(c2)OCO3)ccc1OCc1cn(-c2ccc(C)c(C)c2)nn1", "assigned-class": "inactive"}
{"compound": "CS(=O)(=O)Nc1cc(-c2ccc3ncnc(Nc4ccc5c(cnn5Cc5ccccn5)c4)c3c2)cnc1Cl", "assigned-class": "inactive"}
{"compound": "CCOC(=O)/C=C1\\S/C(=N\\Nc2cc(=O)[nH]c3ccc(Cl)cc23)N(c2ccccc2)C1=O", "assigned-class": "inactive"}
{"compound": "O=C(/C=C/c1cccs1)c1ccc(Cl)nc1", "assigned-class": "inactive"}
{"compound": "CC(=O)Cc1nsc(NC(=O)c2cc(-c3cc(Cl)cc(Cl)c3)oc2C)n1", "assigned-class": "inactive"}
{"compound": "COc1cc2c(c(OC)c1OC)C(=O)CC(c1cccc(NC(=O)c3ccc(Br)cc3)c1)O2 (stereo not given)", "assigned-class": "inactive"}
